# TARGET_ENTITY: human SSTR5 (Homo sapiens)
# Sequence (P35346 whole entry): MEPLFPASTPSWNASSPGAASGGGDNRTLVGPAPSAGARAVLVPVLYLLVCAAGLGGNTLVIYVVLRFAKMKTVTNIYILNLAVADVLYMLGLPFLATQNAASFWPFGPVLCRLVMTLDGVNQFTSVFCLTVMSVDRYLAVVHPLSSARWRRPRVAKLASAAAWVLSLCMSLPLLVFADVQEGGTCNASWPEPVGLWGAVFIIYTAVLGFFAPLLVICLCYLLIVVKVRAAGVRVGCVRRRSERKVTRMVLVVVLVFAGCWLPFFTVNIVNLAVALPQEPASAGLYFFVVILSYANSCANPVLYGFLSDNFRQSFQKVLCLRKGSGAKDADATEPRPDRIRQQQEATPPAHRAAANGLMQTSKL
# ASSAY_NAME: Inositol phosphate accumulation assay (IP1 HTRF, antagonist mode)
# CONDITION_DESCRIPTION: CHO-K1 cells co-expressing human SSTR5 with Gqi5, SST28 agonist at concentration generating 90% of full activation
# Protocol: CHO-K1 cells stably co-expressing human SSTR5 with Gqi5 were developed using Jump-In technology from Thermo-Fisher. […] TR-FRET was measured using a ClarioSTAR plate reader, calculating the ratio between emissions at 665 nm and 620 nm (HTRF ratio). […] IC50 and maximal inhibition values were determined using a standard 4-parameter fit.

>  <STRUCTURE_SMILES>
CCOc1cc(C(=O)OC)c(C2CC2)cc1CN1CCC2(CC1)CC(=O)N(c1ccc(C(=O)NCCOCCOCCO)cc1)C2

>  <IC50>
100 to 1000 nM

$$$$
>  <STRUCTURE_SMILES>
CCOc1cc(C(=O)OC)c(C2CC2)cc1CN1CCC2(CC1)CC(=O)N(c1ccc(C(=O)NCCCP(=O)(O)O)cc1)C2

>  <IC50>
> 5000 nM

$$$$
>  <STRUCTURE_SMILES>
CCOc1cc(C(=O)OC)c(C2CC2)cc1CN1CCC2(CC1)CC(=O)N(c1ccc(CCCC(=O)NC(C)(C)C(=O)NCCN(C)C)cc1)C2

>  <IC50>
1000 to 5000 nM

$$$$
>  <STRUCTURE_SMILES>
CCOc1cc(C(=O)OC)c(C2CC2)cc1CN1CCC2(CC1)CC(=O)N(c1ccc(C(=O)NC[C@H](O)[C@@H](O)[C@H](O)[C@H](O)CO)cc1)C2

>  <IC50>
1000 to 5000 nM

$$$$
>  <STRUCTURE_SMILES>
CCOc1cc(-c2ccc(F)cc2)c(C2CC2)cc1CN1CCC2(CC1)CN(C13CC(C(=O)NCCOCCO)(C1)C3)C(=O)O2

>  <IC50>
≤ 100 nM

$$$$
>  <STRUCTURE_SMILES>
CCOc1cc(CN2CCC3(CC2)CN(c2ccc(C(=O)N[C@@H](CC(=O)O)C(=O)O)cc2)C(=O)O3)cc(OCC)c1-c1ccc(F)cc1

>  <IC50>
100 to 1000 nM

$$$$
